# Assay conditions: mouse, in vivo
Non-standard residues stand in square brackets, D forms with d. Residues, ends and D or L forms follow the SMILES beside them.
Readout kind: Tmax (min)

INSERT INTO measurements (compound, readout_kind, data_value) VALUES
  ('CC(C)[C@H](NC(=O)[C@H](CO)NC(=O)[C@H](N)CCCCN)C(=O)N[C@H](C(=O)N[C@H](CCCNC(=N)N)C(=O)N[C@@H](CCC(=O)O)C(=O)N[C@@H](CC(=O)O)C(=O)N[C@H](C(=O)NCC(=O)N[C@H](C(=O)N[C@@H](Cc1ccc(O)cc1)C(=O)N[C@H](C(=O)N[C@@H](CS)C(N)=O)[C@@H](C)O)[C@@H](C)O)[C@@H](C)O)[C@@H](C)O [peptide 4D] (H-[dK]SVT[dR]EDTGTYTC-NH2; N-terminus and C-terminus assumed)', 'Tmax', 18);

###

# Assay conditions: mouse, in vivo
Non-standard residues stand in square brackets, D forms with d. Residues, ends and D or L forms follow the SMILES beside them.
Readout kind: half-life

INSERT INTO results (molecule, readout_kind, data_value) VALUES
  ('CC(C)[C@H](NC(=O)[C@H](CO)NC(=O)[C@H](N)CCCCN)C(=O)N[C@H](C(=O)N[C@H](CCCNC(=N)N)C(=O)N[C@@H](CCC(=O)O)C(=O)N[C@@H](CC(=O)O)C(=O)N[C@H](C(=O)NCC(=O)N[C@H](C(=O)N[C@@H](Cc1ccc(O)cc1)C(=O)N[C@H](C(=O)N[C@@H](CS)C(N)=O)[C@@H](C)O)[C@@H](C)O)[C@@H](C)O)[C@@H](C)O [peptide 4D] (H-[dK]SVT[dR]EDTGTYTC-NH2; N-terminus and C-terminus assumed)', 'half-life', '> 3.5 h');

Data credit: paper PMC7206208
